Provide the recorded log10 IC50 for the entries that follow.
- Assay Target: 5HT-transporter (Homo sapiens)
- Construct: Human platelet membranes (Oceanix Biosciences Corporation, Hanover, Md., USA) were thawed; tissue Oceanix Biosciences Corporation, Hanover, Md., USA; host or cells: human platelet membranes
- Assay Summary: Binding experiment for the 5HT-transporter ([3H]paroxetine, human platelet membranes)
- Settings: [3H]paroxetine 0.5 nM, 60 min at 25° C., read-out: h-5HTT pIC50 (converted)
Short version: log10 scale, IC50, nM.

Please state log10 IC50 for every compound in the list that follows.
1. CCCC(=O)N(Cc1ccc(-n2ccnc(NC3CCN(Cc4ccc5ccccc5c4)CC3)c2=O)cc1)C(=O)CCC
2. O=c1c(NC2CCN(Cc3ccc4ccccc4c3)CC2)nccn1-c1ccc(CNCCF)cc1
3. O=C(Cc1ccccc1)NCc1ccc(-n2ccnc(NC3CCN(Cc4ccc5ccccc5c4)CC3)c2=O)cc1

# output
1. 1.30
2. 0.90
3. 0.70

Field: log10 IC50. Fill in for each record below.
1. O=c1c(NC2CCN(Cc3ccc4ccccc4c3)CC2)nccn1-c1ccc(CNCC2CCCO2)cc1 (centres unmarked) [1-79a]
2. CN(C(=O)Cn1ccnc(NC2CCN(Cc3ccc4ccccc4c3)CC2)c1=O)C1CCCCC1

# output
1: 0.50; 2: 2.40

Value sought for every listed compound: log10 IC50.
1. O=C(NCCN1CCCCC1)c1ccc(-n2ccnc(NC3CCN(Cc4ccc5ccccc5c4)CC3)c2=O)cc1
2. CCCC(=O)NCc1ccc(-n2ccnc(NC3CCN(Cc4ccc5ccccc5c4)CC3)c2=O)cc1OC
3. O=c1c(NC2CCN(Cc3ccc4ccccc4c3)CC2)nccn1CCCCO

# output
0.50
1.10
2.20

====

Measured Endpoint: melting point
Please append the unit to your numeric answer.

O=c1c(NC2CCN(Cc3ccc4ccccc4c3)CC2)nccn1-c1ccc(NCCN2CCOCC2)cc1 ... 195.3 °C
O=c1c(NC2CCN(Cc3ccc4ccccc4c3)CC2)nccn1-c1ccc2c(c1)CN(Cc1ncc[nH]1)CC2 ... 134.7 °C
C=CCSc1ncccc1C(=O)NCc1ccc(-n2ccnc(NC3CCN(Cc4ccc5ccccc5c4)CC3)c2=O)cc1 ... 117.7 °C

Batch request: melting point per item, same order as input.
1. O=C(NCCN1CCOCC1)c1ccc(-n2ccnc(NC3CCN(Cc4ccc5ccccc5c4)CC3)c2=O)cc1
2. O=c1c(NC2CCN(Cc3ccc4ccccc4c3)CC2)nccn1CCN1CCCCC1

# output
["271 °C", "161.2 °C"]

====

Can you tell me IC50 for the items I'm about to list?
- Assay Target: human adrenergic-α2A receptor (Homo sapiens)
- Construct: expressed in transfected cells; host or cells: CHO cells, stably transfected; membrane preparation
- Assay Summary: Radioligand binding experiment for hα2A-adrenergic receptor ([3H]raulwolscine)
- Settings: [3H]raulwolscine 1 nM, 60 minutes at 25° C.; read-out: h-α2A pIC50 (converted)
For clarity, give the value followed by its unit.

O=C(NCCCn1ccnc(NC2CCN(Cc3ccc4ccccc4c3)CC2)c1=O)Nc1ccccc1 ... 631 nM
O=C1CCCN1Cc1ccc(-n2ccnc(NC3CCN(Cc4ccc5ccccc5c4)CC3)c2=O)cc1 ... 251 nM
O=c1c(NC2CCN(Cc3ccc4ccccc4c3)CC2)nccn1-c1ccc2cc[nH]c2c1 ... 50.1 nM

// each listed compound needs a value for IC50
1. O=c1c(NC2CCN(Cc3ccc4ccccc4c3)CC2)nccn1CCOc1ccccc1
2. CC(=O)N1CCc2ccc(-n3ccnc(NC4CCN(Cc5ccc6ccccc6c5)CC4)c3=O)cc2C1

# output
["316 nM", "126 nM"]

Please report IC50 for every entry that follows.
1. O=c1c(NC2CCN(Cc3ccc4ccccc4c3)CC2)nccn1-c1ccc(CNCCF)c(F)c1
2. O=c1c(NC2CCN(Cc3ccc4ccccc4c3)CC2)nccn1-c1ccc2c(c1)CN(Cc1ncc[nH]1)CC2
3. O=c1[nH]ccnc1NC1CCN(Cc2ccc3ccccc3c2)CC1

# output
126 nM
79.4 nM
501 nM

====

- Assay Target: human adrenergic-α2A receptor (Homo sapiens, UniProt P08913)
- Construct: expressed in transfected cells; host or cells: CHO cells, stably transfected; membrane preparation
- Sequence (P08913 whole entry): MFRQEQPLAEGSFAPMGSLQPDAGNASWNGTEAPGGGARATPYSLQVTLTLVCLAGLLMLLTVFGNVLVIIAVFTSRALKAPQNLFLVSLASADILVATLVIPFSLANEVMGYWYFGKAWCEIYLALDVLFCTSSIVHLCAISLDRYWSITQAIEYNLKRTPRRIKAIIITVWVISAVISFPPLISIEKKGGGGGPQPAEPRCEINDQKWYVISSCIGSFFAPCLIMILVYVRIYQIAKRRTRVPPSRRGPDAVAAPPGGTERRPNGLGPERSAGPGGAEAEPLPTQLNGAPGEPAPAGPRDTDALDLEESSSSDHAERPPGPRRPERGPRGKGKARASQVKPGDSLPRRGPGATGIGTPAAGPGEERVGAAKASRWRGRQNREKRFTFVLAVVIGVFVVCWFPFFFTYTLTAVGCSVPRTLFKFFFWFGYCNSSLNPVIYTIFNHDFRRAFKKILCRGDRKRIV
- Assay Summary: Radioligand binding experiment for hα2A-adrenergic receptor ([3H]raulwolscine)
- Settings: [3H]raulwolscine 1 nM, 60 minutes at 25° C.; read-out: h-α2A pIC50 (converted)
Labelling field: enter criterion met if recorded IC50 is less than 200 nM. Enter criterion not met if it equals or exceeds that cut-off.

Solved entries (count: 3):
O=c1c(NC2CCN(Cc3ccc4ccccc4n3)CC2)nccn1CCOc1ccccc1 ... criterion not met
O=c1c(NC2CCN(Cc3ccc4ccccc4c3)CC2)nccn1CCOC1CCCCO1 (centres unmarked) ... criterion not met
O=c1c(NC2CCN(Cc3ccc4ccccc4c3)CC2)nccn1-c1ccc(CNCc2ccccn2)cc1 ... criterion not met

# input Identify whether the compound O=C(Cn1ccnc(NC2CCN(Cc3ccc4ccccc4c3)CC2)c1=O)NCc1ccc(F)cc1 records IC50 below 200 nM.
# output criterion not met

# input Decide: IC50 of O=C(NCCN1CCCCC1)c1ccc(-n2ccnc(NC3CCN(Cc4ccc5ccccc5c4)CC3)c2=O)cc1 strictly below 200 nM?
# output criterion met

# input Is IC50 of COCCN(C)Cc1ccc(-n2ccnc(NC3CCN(Cc4ccc5ccccc5c4)CC3)c2=O)cc1 strictly below 200 nM?
# output criterion not met

# input Bench note: check whether O=C(Cn1ccnc(NC2CCN(Cc3ccc4ccccc4c3)CC2)c1=O)N1CCN(c2ccccc2)CC1 shows IC50 below 200 nM
# output criterion not met

# input For COc1ccc(Cn2c(-c3ccc(CNCC4CCCO4)cc3)c(Cl)nc(NC3CCN(Cc4ccc5ccccc5c4)CC3)c2=O)cc1 (centres unmarked) , is the recorded IC50 below the cut-off of 200 nM?
# output criterion not met

# input Is it true that IC50 reported for Cn1ccnc1CN1CCc2ccc(-n3ccnc(NC4CCN(Cc5ccc6ccccc6c5)CC4)c3=O)cc2C1 is less than 200 nM?
# output criterion met

# input IC50 under 200 nM? Item: O=C(Cn1ccnc(NC2CCN(Cc3ccc4ccccc4c3)CC2)c1=O)N1CCC(Cc2ccccc2)CC1
# output criterion not met

====

- Assay Target: 5HT-transporter (Homo sapiens, UniProt P31645)
- Construct: Human platelet membranes (Oceanix Biosciences Corporation, Hanover, Md., USA) were thawed; tissue Oceanix Biosciences Corporation, Hanover, Md., USA; host or cells: human platelet membranes
- Sequence (P31645 whole entry): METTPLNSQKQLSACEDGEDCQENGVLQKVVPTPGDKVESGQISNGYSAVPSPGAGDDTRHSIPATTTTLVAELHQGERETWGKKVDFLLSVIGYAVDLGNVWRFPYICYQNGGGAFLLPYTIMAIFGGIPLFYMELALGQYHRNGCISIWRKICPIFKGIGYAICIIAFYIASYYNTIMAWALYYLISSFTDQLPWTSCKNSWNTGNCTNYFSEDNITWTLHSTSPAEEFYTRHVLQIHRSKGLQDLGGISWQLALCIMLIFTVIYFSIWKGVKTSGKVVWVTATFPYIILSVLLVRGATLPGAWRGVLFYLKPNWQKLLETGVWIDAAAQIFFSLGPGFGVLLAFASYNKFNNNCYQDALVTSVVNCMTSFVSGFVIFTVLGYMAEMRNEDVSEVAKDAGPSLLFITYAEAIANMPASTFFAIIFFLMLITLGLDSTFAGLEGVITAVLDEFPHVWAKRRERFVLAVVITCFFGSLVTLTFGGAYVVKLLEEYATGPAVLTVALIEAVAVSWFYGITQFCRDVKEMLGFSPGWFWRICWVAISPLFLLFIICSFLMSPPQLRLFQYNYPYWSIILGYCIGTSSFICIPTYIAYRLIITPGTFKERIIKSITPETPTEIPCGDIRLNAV
- Assay Summary: Binding experiment for the 5HT-transporter ([3H]paroxetine, human platelet membranes)
- Settings: [3H]paroxetine 0.5 nM, 60 min at 25° C., read-out: h-5HTT pIC50 (converted)
I'd appreciate it if you could supply IC50 values for the items below.
Give bare numbers, in nM.

O=c1[nH]ncn1CCCn1ccnc(NC2CCN(Cc3ccc4ccccc4c3)CC2)c1=O ... 126

Need IC50 for each of these molecules.
1. CC(C)(Cc1ccccc1)NC(=O)Cn1ccnc(NC2CCN(Cc3ccc4ccccc4c3)CC2)c1=O
2. O=c1c(NC2CCN(Cc3ccc4ccccc4c3)CC2)nccn1-c1ccc2[nH]ccc2c1
3. CC(=O)NCCNCc1ccc(-n2ccnc(NC3CCN(Cc4ccc5ccccc5c4)CC3)c2=O)cc1

# output
1. 158
2. 25.1
3. 10

====

Would you kindly list IC50 for each of these compounds?
- Assay Target: human adrenergic-α2C receptor (Homo sapiens)
- Construct: expressed in transfected cells; host or cells: CHO cells, stably transfected; membrane preparation
- Sequence (P18825 1-462): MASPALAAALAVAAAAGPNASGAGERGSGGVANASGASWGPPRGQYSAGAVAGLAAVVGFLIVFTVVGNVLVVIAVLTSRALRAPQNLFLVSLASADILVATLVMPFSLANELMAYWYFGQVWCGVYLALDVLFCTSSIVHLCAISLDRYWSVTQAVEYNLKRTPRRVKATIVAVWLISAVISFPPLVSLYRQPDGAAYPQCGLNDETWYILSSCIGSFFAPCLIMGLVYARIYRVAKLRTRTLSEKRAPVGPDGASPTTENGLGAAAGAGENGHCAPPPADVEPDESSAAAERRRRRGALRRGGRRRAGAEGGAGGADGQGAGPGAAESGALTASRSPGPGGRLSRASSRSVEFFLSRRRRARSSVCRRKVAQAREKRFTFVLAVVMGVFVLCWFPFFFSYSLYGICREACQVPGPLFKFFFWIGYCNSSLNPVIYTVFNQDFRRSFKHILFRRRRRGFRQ
- Assay Summary: Radioligand binding experiment for hα2C-adrenoceptor ([3H]raulwolscine)
- Settings: [3H]raulwolscine 1 nM, 60 minutes at 25° C.; read-out: h-α2C pIC50 (converted)
Answers are plain numbers, in nM.

Here's what some known entries look like.
O=C(CCN(c1nccn(CCC(=O)c2ccccc2)c1=O)C1CCN(Cc2ccc3ccccc3c2)CC1)c1ccccc1 ... 39.8
COC(=O)CCn1ccnc(NC2CCN(Cc3ccc4ccccc4c3)CC2)c1=O ... 79.4
O=c1c(NC2CCN(Cc3ccc4ccccc4c3)CC2)nccn1Cc1cccc([N+](=O)[O-])c1 ... 79.4

Give IC50 for all compounds that follow.
1. O=c1c(NC2CCN(Cc3ccc4ncccc4c3)CC2)nccn1CCCOc1ccccc1
2. CC(C)(C)C(=O)Cn1ccnc(NC2CCN(Cc3ccc4ccccc4c3)CC2)c1=O

# output
[63.1, 39.8]
